target: HLA-B*5401 (human); experiment: competition with 125I-B35con2, purified HLA; settings: remark: other sources report otherwise
measured_endpoint: IC50 (nM)

a = LPQPPICTI (modifications not checked) [Her2/neu.941 …]
b = YPNASLLI [CEA.102 YPNASLLI]
(Q) Kindly identify which of a and b has the larger recorded IC50 value. Lab note: record the label of whichever item you select.
(A) b
